pIC50 by entry:
- tgt: PIK3CG (human)
pIC50: −log10 of the molar value.

Worked cases, pIC50 given:
1) CC(C)CC(=O)Nc1cccc(CNC(=O)Nc2nc3c(s2)-c2nc(-c4ccccc4Cl)ncc2CC3)c1 = > 6.10
2) O=C(NCCC(=O)N1CCCCC1)Nc1nc2c(s1)-c1nc(-c3ccccc3Cl)ncc1CC2 = > 6.10

Noted for "COCCCNC(=O)Nc1nc2c(s1)-c1nc(-c3ccccc3Cl)ncc1CC2" : its pIC50 reads > 6.10

Noted for "CN(C)C(=O)Nc1nc2c(s1)-c1nc(-c3ccccc3C(F)(F)F)ncc1CC2" : its pIC50 reads > 6.10

Noted for "CN1CCN(C(=O)Nc2nc3c(s2)-c2nc(-c4ccccc4Cl)ncc2CC3)CC1" : its pIC50 reads > 6.10
